# tested target: T1, mucin domain-deleted Sudan GP (GPdMuc) (Sudan virus (SUDV), UniProt Q7T9D9 33-632)
# T1 construct: also called Sudan GPdMuc; GP(S)dMuc
# procedure summary: ELISA on coated GP
Consider the following binders and their measured EC50 readings.
observable: EC50 (µg/mL)

binder	observable	reported value
antibody 405S (antibody, V domains shown) VH: EVQLVESGGGLIQPGGSLRLSCAASGFTVSSHYMSWVRQAPGKGLEWVSGIYSGGRTHYADSVKGRFTISRDNSKNTLYLQMNSLRADDTAVYSCARGTLLYLYGMDVWGQGTTVTVSS VL: QSVLTQPPSVSAAPGQRVTISCTGSSSNIGAGYNVHWYQQLPGAAPKLLIYGNTNRPSGVPDRFSGSKSGTSASLAITGLQAEDEADYYCQSFDSSLSGVFGTGTKVTVL	EC50	0.04
antibody 285S (antibody, V domains shown) VH: QVQLVQSGAEVKKPGSSVKVSCKASGGTFSTYAITWVRQAPGQGLEWMGRIIPILRVANYAQKFQGRVTITADSSTSTAYMELSSLRSEDTAVYYCANLLAYCGGDCRSDYWGQGTLVTVSS VL: EIVLTQSPGTLSLSPGERATLSCRASQSVKNSYLAWYHQKPGQAPRLLIYGASSRATGIPDRFSGSGSGTDFTLTISRLEPEDFAVYYCQQYGSSLWTFGQGTKVDVK	EC50	0.02
antibody 377S (antibody, V domains shown) VH: QVQLVQSGAEVKKPGSSVKVSCKASGGTFSNYAINWVRQAPGQGLEWMGRTIPFLGLTNYAENFQARVTITADKSTGTSYMQLSSLRSEDTAVYFCAKAATSGWSPFDNWGQGTLVTVSS VL: EIVLTQSPGTLSLSPGERATLSCRASQSISSSYFGWYQQKPGQAPRLLIYGASRRAAGIPDRFSCSGSGTDFTLTISRLEPEDFGVYYCQQYGSSPTFGQGTKVEIK	EC50	0.86
antibody 365S (antibody, V domains shown) VH: EVQLVESGGGLVQPGGSLRLSCAASGLTFSAYEMNWVRQAPGKGLEWVSHITTSGSAIYYADSVKGRFTISRDNAKNSLHLQMNRLRADDTAVYFCARDSTIVQCSGTSCHVSTYSYMDVWGKGTTVTVSS VL: EIVLTQSPATLSLSPGERATLSCRASQSVTTYLAWYQHKPGQAPRLLIYDASKRATGIPARFSGSGSGTDFTLTISSLEPEDFAVYHCQQRSSWPPITFGQGTRLEIK	EC50	0.06
